# Tested on: HepG2
# assayInfo: cytotoxicity call (relative viability < 0.9)
# conditionContext: 10 µM
Out of some 39,000 compounds screened, about 3,300 (8.5%) were called active. Only a selection was taken, and actives are over-represented in it overall.
// allowed return values: yes (1) (active), no (0) (inactive)

q: Assay outcome for C[C@H](CO)N1C[C@H](C)[C@H](CN(C)S(=O)(=O)c2cn(C)cn2)OCc2ccccc2-c2ccccc2C1=O : what was it?
a: no (0)

q: Assay outcome for C[C@@H]1CCCCO[C@@H](CN(C)Cc2ccccc2)[C@H](C)CN([C@@H](C)CO)C(=O)c2cc(NS(=O)(=O)c3ccc(F)cc3)ccc2O1 : what was it?
a: no (0)

q: Assay outcome for C[C@@H]1CCCCO[C@@H](CN(C)CC2CCCCC2)[C@@H](C)CN([C@@H](C)CO)C(=O)c2cc(NC(=O)Cc3ccccc3)ccc2O1 : what was it?
a: no (0)

q: Assay outcome for COCCOC(=O)N1C(=O)[C@@]2(c3cc(C#CC4=CCCCC4)ccc31)[C@H](c1ccc(OCCO)cc1)N1[C@H](c3ccccc3)[C@H](c3ccccc3)OC(=O)[C@H]1[C@@H]2C(=O)N1CCN(c2ncccn2)CC1 : what was it?
a: no (0)

q: Assay outcome for C[C@H](CO)N1C[C@H](C)[C@H](CN(C)CC2CCCCC2)Oc2ccc(NC(=O)Nc3ccc(C(F)(F)F)cc3)cc2CC1=O : what was it?
a: yes (1)

q: Assay outcome for C[C@H](CO)N1C[C@H](C)[C@H](CN(C)C(=O)NC2CCCCC2)Oc2ccc(NC(=O)Nc3ccc(C(F)(F)F)cc3)cc2CC1=O : what was it?
a: no (0)

----------
# Tested on: HepG2
# assayInfo: cytotoxicity call (relative viability < 0.9)
# conditionContext: 10 µM
In all, about 39,000 compounds went through this assay and about 3,300 (8.5%) were called active. This is one part of a sample in which actives are shown more often than they occur.
// allowed return values: YES for active, NO for inactive

q: Assay outcome for CC(C)NC(=O)Nc1ccc2c(c1)C(=O)N([C@@H](C)CO)C[C@H](C)[C@@H](CN(C)S(C)(=O)=O)OCCCC[C@H](C)O2 : what was it?
a: NO

q: Assay outcome for C[C@@H]1CCCCO[C@@H](CN(C)CC2CCCCC2)[C@@H](C)CN([C@@H](C)CO)C(=O)c2cc(NC(=O)Nc3cccc4ccccc34)ccc2O1 : what was it?
a: YES

q: Assay outcome for C[C@@H]1CCCCO[C@@H](CN(C)CC2CC2)[C@@H](C)CN([C@H](C)CO)C(=O)c2cc(NC(=O)Nc3cccc4ccccc34)ccc2O1 : what was it?
a: NO

q: Assay outcome for C[C@@H]1CN([C@@H](C)CO)C(=O)c2cc(NC(=O)Nc3cccc4ccccc34)ccc2O[C@@H](C)CCCCO[C@H]1CN(C)CC1CC1 : what was it?
a: NO

q: Assay outcome for C[C@@H]1CCCCO[C@H](CN(C)C)[C@@H](C)CN([C@H](C)CO)C(=O)c2cc(NC(=O)Nc3cccc4ccccc34)ccc2O1 : what was it?
a: NO

q: Assay outcome for C[C@@H]1CCCCO[C@@H](CN(C)CC2CC2)[C@H](C)CN([C@H](C)CO)C(=O)c2cc(NC(=O)Nc3cccc4ccccc34)ccc2O1 : what was it?
a: NO
